# measuredTarget: T1, Human MAGEB2 (Melanoma-associated antigen B2) (human, UniProt O15479 1-319)
# T1 construct: Intracellular antigen detected by IHC in FFPE material: CHO cells transfected with human MAGEB2 (mCherry vector with Myc/DDK tags, or ORF without tags)
# T1 sequence: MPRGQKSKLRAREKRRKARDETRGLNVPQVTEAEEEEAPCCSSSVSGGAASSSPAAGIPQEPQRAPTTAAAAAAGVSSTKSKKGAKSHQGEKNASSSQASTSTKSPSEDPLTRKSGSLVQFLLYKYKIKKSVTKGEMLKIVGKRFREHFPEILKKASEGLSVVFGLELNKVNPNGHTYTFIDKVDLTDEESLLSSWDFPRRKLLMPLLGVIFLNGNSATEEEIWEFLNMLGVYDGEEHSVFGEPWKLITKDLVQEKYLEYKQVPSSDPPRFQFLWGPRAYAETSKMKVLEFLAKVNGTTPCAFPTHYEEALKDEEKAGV
# assay: IHC on FFPE U266B1 cells (endogenous MAGEB2)
Below is a list of entries, each paired with its recorded IHC % Frequency value.
Express it in %; write the number only.

1C3 (antibody, V domains shown, also called MAGE-B2 (IC3); anti-MAGEB2 antibody 1C3) VH: QSLEESGGGLVQPEGSLTLTCTAFGVTLTNYYICWVRQAPGKGLEWVGCIDNANGRTYYASWAKGRFTISKTSSTTGTLQMTSLTAADTATYFCARSLATPLWGPGTLVTVSS VL: DIVMTQTPSSVEAAVGGTVTIKCQASQNISSYLAWYQQKPGQPPKLLIYRASTLASGVPSRFKGSGSGTQFTLTISDLECADAATYYCQSYDDSRSSNFFYAFGGGTEVVVKG | 90

Problem: Item under review: 4G17 (antibody, IgG1, V domains shown, Rabbit monoclonal IgG1; Tested as supernatant and as small batch purified antibody; also called MAGE-B2 (4G17); anti-MAGEB2 antibody 4G17) VH: QSLEESGGGLVQPEGSLTLTCTASGVTLSNYYICWVRQAPGKGLEWIGCIDNVNGRTYYASWAKGRFTISKTSSTTGTLQMTSLTAADTATYFCARSLATPLWGPGTLVTVSS VL: DIVMTQTPASVEAAVGGTVTIKCQASQNIDSYLAWYQQKPGQPPKLLIYRASTLASGVPSRFKGSGSGTEFTLTISDLECADAATYYCQSYDDSRSSSFFYGFGGGTEVVVK . Reported IHC % Frequency?
Result: 80

Problem: Next entry: 1I14 (antibody, V domains shown, also called MAGE-B2 (1i14)) VH: QSVEESGGRLVTPGTPLTLTCTISGFSLSSYAMSWVRQAPGKGLEWIGSIGGGGSAVYASWAKGRFTISKTSTTVDLRITSPTTEDTAMYFCGRGFYSIDLWGPGTLVTVSS VL: DVVMTQTPASVEATVGGTVTIKCQSSQSVYDNNALAWYQQNAGQRPRLLIYGASTLASGVPSRFSASGSGTEFTLTISDLECADAATYYCQCTYYVSSYQNDFGGGTEVVVKG
Result: 90

Problem: Next entry: 1J15 (antibody, IgG1, V domains shown, Rabbit monoclonal IgG1; Tested as supernatant and as small batch purified antibody; also called MAGE-B2 (IJ15); anti-MAGEB2 antibody 1J15) VH: QSLEESGGGLVQPEGSLTLTCTAFGFTLNNYYICWVRQAPGKGLEWIACIDNANGRTYYASWAKGRFTISKTSSTTVTLQMTSLTAADTATYFCARSLSTPLWGPGTLVTVSS VL: DIVMTQTPASVEAAVGGTVTIKCQASQSISSYLSWYQQKPGQPPKLLIYRASTLASGVPSRFRGSGSGTQFTLTISDLECADAATYYCQSYDDSSDNNFFYGFGGGTEVVVR
Result: 90

Origin of measurements: patent US20250282887A1
